System: MS2 coat protein
Experiment: apparent Kd, MS2 coat protein; higher = weaker binding; RNA-MaP array; theophylline 2 mM where present
Condition parameters: ligand present: theophylline; designed as: ON switch for theophylline
# label = Criterion met if apparent Kd >= 40 nM else Criterion not met

Solved entries:
apparent Kd >= 40 nM for "GCACCAGGUACGGAUACCAGCUAUAGGCCCAAUGGGCGACAUGAGGAUCACCCAUGUAAUGGCCCUUGGCAGCUGUACCUGGUGC" ?
Criterion not met

apparent Kd >= 40 nM for "CAUGGGUGGUAUCACCCAUCCAUAGGUGAUACCAGCAUCGAAAGAUGCCCUUGGCAGCACCAACAUGAGGAUCACCCAUGUAAUA" ?
Criterion met

apparent Kd >= 40 nM for "ACUUCAUGAGGUGAUACCAGCCAAUGACAUGAGGACAUGAGGAUCACCCAUGUUUAUGUAGGCCCUUGGCAGCACUGUAACAUGA" ?
Criterion not met

apparent Kd >= 40 nM for "CGAUCUUUCGAAAGAAGGAUCUUGUCUGAUACCAGAGACGAAAGUCUCCCUUGGCAGCAGUGCCAACAUGAGGAUCACCCAUGUU" ?
Criterion not met

apparent Kd >= 40 nM for "UUUACAUGAGGAUCACCCAUGUUCCAUGAUACCAGACAUGAAAAUGUCCCUUGGCAGCAUGAAUGAUUCAUAGGAUAAUUAUGGG" ?
Criterion met

***
apparent Kd >= 40 nM for "AGUGUAUCCAUCGAUACCAGCCACAACGUAACAUACACAUGAGGAUCACCCAUGUUGUGUGGCCCUUGGCAGCGGUGCCUGUGUA" ?
Criterion not met

apparent Kd >= 40 nM for "AUGCAGGGCAACAGCCACUGUCACGGUGAUACCAGUACCCGUGCGUACCCUUGGCAGCAUCGUGGUACAUGAGGAUCACCCAUGU" ?
Criterion met

apparent Kd >= 40 nM for "AGUGUAUCCAUCGAUACCAGCCACCACCGAUAGACCACAUGAGGAUCACCCAUGUUGGGUGGCCCUUGGCAGCGGUGGCUGUGUA" ?
Criterion met

apparent Kd >= 40 nM for "ACAUGAGGAUCACCCAUGUAAUGGCACGAUACCAGCUGAUCCCGUGGCCCUUGGCAGCGUCCGGUGUGGUCCGCCGGGUUGGACG" ?
Criterion not met

apparent Kd >= 40 nM for "UUUACAUGAGGAUCACCCAUGUGCCAUGAUACCAGACAUGAAAAUGUCCCUUGGCAGCAUGAAGGUACCUCAUCGGGAAACCGAA" ?
Criterion met

apparent Kd >= 40 nM for "GCACCAGGUACGGAUACCAGCUGCCCGAGAUACAUGAGGAUCACCCAUGUGACCUGGUUUAGCCCUUGGCAGCUGUACCUGGUGC" ?
Criterion not met

apparent Kd >= 40 nM for "ACUUUGUCGGGUGAUACCAGCCUCGGCACAUCUCGUGCCGAACAUGAGGAUCACCCAUGUGGCCCUUGGCAGCACAUGACAACUC" ?
Criterion met

apparent Kd >= 40 nM for "UAACAUGAGGAUCACCCAUGUAUAGUCGAUACCAGCUCAAGGAAGAGCCCUUGGCAGCGACACUGCCAAGCAUGGGUCAUGGCAG" ?
Criterion not met

apparent Kd >= 40 nM for "ACACAUGAGGAUCACCCAUGUUCAAUAGAUACCAGUGAUACGGUGCACCCUUGGCAGCUGUUGCUGAGUGAUGGUUCCCUCGGAA" ?
Criterion met

apparent Kd >= 40 nM for "GCACUACAUGAGGAUCACCCAUGUGCAGAUACCAGAGGUGUAUGCCUCCCUUGGCAGCUGAGUAGGUCUGGAGGGCUAUUGGUUU" ?
Criterion not met

apparent Kd >= 40 nM for "UAUAACAUGAGGAUCACCCAUGUAAGUGAUACCAGAUAAAUAAUAGUCCCUUGGCAGCAUAUUGGGAAAAUGUAUAAUAUAUAUU" ?
Criterion met

apparent Kd >= 40 nM for "UCGUGUAUAUCGGAUACCAGUGAGAAGGAUACAUGAGGAUCACCCAUGUGAGUUGAUGUACACCCUUGGCAGCUGUAUAUAUCUA" ?
Criterion not met

apparent Kd >= 40 nM for "GCACCAGGUACGGAUACCAGCUGCCAGCGUUACAUGAGGAUCACCCAUGUGAUCUGAAGUAGCCCUUGGCAGCUGUACCUGGUGC" ?
Criterion met

====

System: MS2 coat protein
Experiment: apparent Kd, MS2 coat protein; higher = weaker binding; RNA-MaP array
Condition parameters: ligand present: flavin mononucleotide; designed as: OFF switch for flavin mononucleotide
# label = class 1 if apparent Kd >= 20 nM else class 0

Solved entries:
apparent Kd >= 20 nM for "ACAUACAUGAGGAUCACCCAUGUGGGAUCUUCCUCUAAAACUAAGGAUAUGUCAGUUGGUUAACUACAGAAGGUAGGUCGGAAC" ?
class 1

apparent Kd >= 20 nM for "AGUGGGUUUCAGGAUAUAAUAUUAUCAACCAUAUUAGAAGGGAAUACAUGAGGAUCACCCAUGUUGAGUAUACG" ?
class 0

apparent Kd >= 20 nM for "UAGCGUUCCUCAGGAUAUCCUUAAGUGGACAUGAGGAUCACCCAUGUGUGAUUCUGGGUGUUAUGGGAGAAGGGAGGGUGAUGA" ?
class 1

apparent Kd >= 20 nM for "GCAUGCGGCAAGGAUAUCAAUGCUAUGGUCUAAUGAGAAGGUGCCACAUGAGGAUCACCCAUGUUUCCGGCGAG" ?
class 1

apparent Kd >= 20 nM for "CGAAGACAUGAGGAUCACCCAUGUAAGGAUAUUCAAAGAGCGCACCUGAAUGCCCUAUGAAGAAGGUACCGGGC" ?
class 1

apparent Kd >= 20 nM for "UCCUAUUCAGGAUAUGCGACACGAAACAUGAGGAUCACCCAUGUCUGGGCACCUCAAAGCGCAGAAGGGAACAACG" ?
class 1

apparent Kd >= 20 nM for "CUACAUGAGGAUCACCCAUGUGCCUCUGGUCAGGGUCACUACGAGGAUAUAAUAGUUUAGACGAGUUAGAAGGCGUAUGAGUUA" ?
class 1

apparent Kd >= 20 nM for "GAACUUCGAGUCAGGAUAUGUACAUCAAAACCAAAACAGAAGGGACAUGAGGAUCACCCAUGUGAGCUAGGAUU" ?
class 0

***
apparent Kd >= 20 nM for "GAUCGACAUGAGGAUCACCCAUGUGAGGAUAUACCGCGGACUCCGUCUGCAUGUUAGGGUAGAAGGCACCGAGC" ?
class 0

====

Tested on: MS2 coat protein
Experiment: apparent Kd, MS2 coat protein; higher = weaker binding; RNA-MaP array; FMN 200 µM where present
Condition parameters: ligand present: flavin mononucleotide; designed as: OFF switch for flavin mononucleotide
Measurement name: apparent Kd (nM)
One number for each entry, in nM.

Here are 6 sequences together with their reported answers.
Identify the measured apparent Kd of "AGUCGGAGCAGAGGAUAUACAUGAGGAUCACCCAUGUAAUUAAGUGAAGCCUGGAAACAGGCAAUGUAGAAGGCUGCUCCGACA" for MS2 coat protein.
51.7

Identify the measured apparent Kd of "UGACGGAGCAGAGGAUAUUACAUGAGGAUCACCCAUGUAUGAACCAAUAGCUGGAAACAGCAAUGUAAGAAGGCUGCUCCGACA" for MS2 coat protein.
147

Identify the measured apparent Kd of "GUGAGUAGUCAGGAUAUGCUGUACAAAAGUACAGCAGAAGGGAUUACAUGAGGAUCACCCAUGUUAUCUUCAUG" for MS2 coat protein.
510

Identify the measured apparent Kd of "ACGACGAAAAUCGAACGAUGUAGCAGAAGGACAUGAGGAUCACCCAUGUAAAAUGUAACAGCCAUGUAGGAUAUGCUACAUCGA" for MS2 coat protein.
272

Identify the measured apparent Kd of "UAUUUACAUGAGGAUCACCCAUGUCAGGAUAUGCUUCUAUCGUCGAAAGACGAUAGUUGCAGAAGGGACAAUAU" for MS2 coat protein.
106

Identify the measured apparent Kd of "GAAGUUAGAGGAUAUACAUGAGGAUCACCCAUGUGUGUUGUGAACAAUGUAUGUUUAUGUAGAAGGCUAACUUC" for MS2 coat protein.
241

Consider the record given below.
Identify the measured apparent Kd of "UACCCUUGUGAGAAGGCGCCGCAGAUUUUACGGCGAGGAUAUCACAUGAGGAUCACCCAUGUUCCUGAGCCUACAAGUGUGGGC" for MS2 coat protein.
313

====

Test system: MS2 coat protein
Experiment: apparent Kd, MS2 coat protein; higher = weaker binding; RNA-MaP array; FMN 200 µM where present
Condition parameters: designed as: OFF switch for flavin mononucleotide; no ligand
# label = Satisfied if apparent Kd >= 30 nM else Not satisfied

Solved entries:
apparent Kd >= 30 nM for "GUGAGUAGUCAGGAUAUGCUGUACAAAAGUACAGCAGAAGGGAUUACAUGAGGAUCACCCAUGUUAUCUUCAUG" ?
Satisfied

apparent Kd >= 30 nM for "GUCAGCUCGUGAGGAUAUACACCACUGCUUCGGCAGUGUAUUAAGAUCACAUGAGGAUCACCCAUGUAGAAGGCACGAGCUGAU" ?
Not satisfied

apparent Kd >= 30 nM for "UAUUUACAUGAGGAUCACCCAUGUCAGGAUAUGCUUCUAUCGUCGAAAGACGAUAGUUGCAGAAGGGACAAUAU" ?
Satisfied

apparent Kd >= 30 nM for "UUCGUGUGACAGAAGGGUCUUUCGGGCUGGGAGGCAGGAUAUGUGACAUGAGGAUCACCCAUGUUGGUAUCGUCUGUGUGUACG" ?
Not satisfied

apparent Kd >= 30 nM for "CGUGCAUAUGUAGGAUAUGGUUAUCUAUGUCUAGUUACUAGACAUAGAUAACCAGAAGGACAUGAGGAUCACCCAUGUAGCACG" ?
Not satisfied

***
apparent Kd >= 30 nM for "AAUUAUAUACAGAAGGAGUUAUAUUAAGUAUUACUAGGAUAUGUUCACAUGAGGAUCACCCAUGUCAUAUUGGGAUUUAUUUUU" ?
Not satisfied

apparent Kd >= 30 nM for "GUCCUCUCUGAGGAUAUUAUCCGGUCCGAUUGAUAAGAAGGCAGUACAUGAGGAUCACCCAUGUGGGUCGUCUG" ?
Satisfied

apparent Kd >= 30 nM for "UCUACAUAAAUUCAUCAAUACAGAAAGGAUAUGAGAUACAUGAGGAUCACCCAUGUGCAUGGGAAUUAGAAGGUUCAAUUAGCU" ?
Satisfied

apparent Kd >= 30 nM for "GAUCCACAUGAGGAUCACCCAUGUGAGGAUAUGAUACUAUGUACUUCGGUACAUAGUAUCAGAAGGCACGGAUC" ?
Not satisfied

apparent Kd >= 30 nM for "CGUGACUCAGGAUAUCUAUAAUAUCACAUGAGGAUCACCCAUGUCCAGCAAUAGCUGGAGGGAGAAGGGAGUCACG" ?
Satisfied

apparent Kd >= 30 nM for "UUAAUUAAUUAAUUGCAGAAUUACAUGAGGAUCACCCAUGUAUAGGAUAUCGUCAGGAAUACUGACGAGAAGGAUACAUACUGC" ?
Not satisfied

apparent Kd >= 30 nM for "GUCAGCUCGUGAGGAUAUACAUGUGCUGGAUACAGCACUAUUAUGUUCACAUGAGGAUCACCCAUGUAGAAGGCACGAGCUGAU" ?
Not satisfied

apparent Kd >= 30 nM for "CUGAGGAAAGGAUAUACAUCAAACUCCUCAUCCUCGAAAGAACAUGAGGAUCACCCAUGUAGAAGGUUCGCGGU" ?
Satisfied

apparent Kd >= 30 nM for "AACUGACAUGAGGAUCACCCAUGUCAGGAUAUGAUUUGACGAAAUAAAAUAAGUCAUAUCAGAAGGGACAUGGA" ?
Not satisfied

apparent Kd >= 30 nM for "AUAAUUUUAUAUAUCAUUUUAAUCAGAAGGCAUAACAUGAGGAUCACCCAUGUAAAUUAAUGUUAUGAGGAUAUGAUUUGGUUA" ?
Not satisfied

apparent Kd >= 30 nM for "GCACCUUUAUUUGAACCGAUACGAACAUGAGGAUCACCCAUGUAGGAUAUGCUAAAAGUUGUGUUGCAGAAGGACAUUUAGUGC" ?
Not satisfied
